System: MeWo melanoma
Assay: Sulphorodamine B test at single concentration, MeWo
Format: cell-based
Conditions: Homo sapiens, 500 nM, 72 h
Reported inhibition at 0.5 µM values for a set of compounds
MEASUREMENT NAME: inhibition at 0.5 µM

1. CC(C)c1cc(-n2nnc(C(=O)NC3CCCC3)c2-c2ccc(CN3CCOCC3)cc2)c(O)cc1O | ≥ 50%
2. Oc1cc(O)c(-n2nncc2-c2ccc(F)cc2)cc1Cl [Example 33, reference compound] | < 30%
3. CCNC(=O)c1nnn(-c2cc(C(C)C)c(O)cc2O)c1-c1ccc(CNCCN2CCOCC2)cc1 | ≥ 50%
4. CCOC(=O)c1nnn(-c2cc(Cl)c(O)cc2O)c1-c1ccc(F)cc1 [Example 32, reference compound] | < 30%
5. CC(C)c1cc(-n2nncc2-c2ccc(CN3CCCC(O)C3)cc2)c(O)cc1O (centres unmarked) | ≥ 50%
